The entries below are paired with their reported GI50.
Test system: prostate DU-145
Test: COMPARE screening (NCI human cancer cell line screen), cytotoxicity GI50
Assay type: cell-based
measured attribute: GI50 (nM)

O=C(O)C(F)(F)F.O=C(O)C(F)(F)F.O=C1c2ccccc2-c2c1c1ccccc1c(=O)n2CCNCCNCCn1c2c(c3ccccc3c1=O)C(=O)c1ccccc1-2 [Compound 14c]    182
CN(C)CCCn1c2c(c3cc4c(cc3c1=O)OCO4)C(=O)c1ccccc1-2    2040
Cl.NCCCCn1c2c(c3ccccc3c1=O)C(=O)c1ccccc1-2    10
CC(C)(C)OC(=O)NCCCCCCCCCCn1c2c(c3ccccc3c1=O)C(=O)c1ccccc1-2    97700
COc1cc2c3c(n(CCCN(C)C)c(=O)c2cc1OC)-c1ccccc1C3=O    4470
COc1ccc2c(c1)C(=O)c1c-2n(CCCN2CCOCC2)c(=O)c2ccccc12    2290
COc1cc2c3c(n(CCCN4CCCNCC4)c(=O)c2cc1OC)-c1cc2c(cc1C3=O)OCO2.Cl.Cl [Compound 5v, Dihydrochloride]    81
O=C(O)C(F)(F)F.O=C(O)C(F)(F)F.O=C1c2ccccc2-c2c1c1ccccc1c(=O)n2CCCN1CCN(CCCn2c3c(c4ccccc4c2=O)C(=O)c2ccccc2-3)CC1 [Compound 14f]    24000
Cl.NCCCn1c2c(c3ccccc3c1=O)C(=O)c1ccccc1-2    220
COc1cc2c3c(n(CCCN4CCNCC4)c(=O)c2cc1OC)-c1cc2c(cc1C3=O)OCO2.Cl.Cl [Compound 5p, Dihydrochloride]    15
COc1ccc2c(c1)C(=O)c1c-2n(CCCN=[N+]=[N-])c(=O)c2ccccc12    61700
COc1ccc2c(c1)C(=O)c1c-2n(CCCN)c(=O)c2ccccc12.Cl    14
Cl.NCCn1c2c(c3ccccc3c1=O)C(=O)c1ccccc1-2    760

###

The entries below are paired with their reported log10(GI50).
System: colon HCT-116
Experiment: COMPARE screening (NCI human cancer cell line screen), cytotoxicity GI50
Format: cell-based
Description: Selected compounds were tested for antiproliferative activity in the National Cancer Institute's developmental therapeutics assay 60 cell line screen (NCI60). The cells were incubated with the tested compounds at 100, 10, 1, 0.1, and 0.01 μM concentrations for 48 h before treatment with sulforhodamine B dye. Optical densities were recorded, and their ratios relative to that of the control were plotted as percentage growth against the log 10 of the tested compound concentrations.
measured attribute: log10(GI50) (log10 of the value in nM)

COc1ccc2c(c1)C(=O)c1c-2n(CCCN2CCOCC2)c(=O)c2ccccc12    3.10
CC(C)(C)OC(=O)NCCCCCCCn1c2c(c3ccccc3c1=O)C(=O)c1ccccc1-2    4.24
CN(C)CCCn1c2c(c3ccccc3c1=O)C(=O)c1ccccc1-2    2.76
COc1cc2c3c(n(CCCN4CCN(CCO)CC4)c(=O)c2cc1OC)-c1cc2c(cc1C3=O)OCO2    3.37
Cl.O=C1c2ccccc2-c2c1c1ccccc1c(=O)n2CCCCNCCCn1c2c(c3ccccc3c1=O)C(=O)c1ccccc1-2 [Compound 14b, Hydrochloride]    1.75
O=C1c2ccccc2-c2c1c1ccccc1c(=O)n2CCCNCCCn1c2c(c3ccccc3c1=O)C(=O)c1ccccc1-2 [Compound 12c]    2.74
COc1cc2c3c(n(CCCn4ccnc4)c(=O)c2cc1OC)-c1ccccc1C3=O    1.00
O=C1c2ccccc2-c2c1c1ccccc1c(=O)n2CCN1CCOCC1    4.56
[N-]=[N+]=NCCCn1c2c(c3ccccc3c1=O)C(=O)c1ccccc1-2    3.69
COc1ccc2c(c1)C(=O)c1c-2n(CCCI)c(=O)c2cc([N+](=O)[O-])ccc12    1.66
